# ASSAYED TARGET: HSA (Homo sapiens)
# Sequence (P0DUB6 16-511): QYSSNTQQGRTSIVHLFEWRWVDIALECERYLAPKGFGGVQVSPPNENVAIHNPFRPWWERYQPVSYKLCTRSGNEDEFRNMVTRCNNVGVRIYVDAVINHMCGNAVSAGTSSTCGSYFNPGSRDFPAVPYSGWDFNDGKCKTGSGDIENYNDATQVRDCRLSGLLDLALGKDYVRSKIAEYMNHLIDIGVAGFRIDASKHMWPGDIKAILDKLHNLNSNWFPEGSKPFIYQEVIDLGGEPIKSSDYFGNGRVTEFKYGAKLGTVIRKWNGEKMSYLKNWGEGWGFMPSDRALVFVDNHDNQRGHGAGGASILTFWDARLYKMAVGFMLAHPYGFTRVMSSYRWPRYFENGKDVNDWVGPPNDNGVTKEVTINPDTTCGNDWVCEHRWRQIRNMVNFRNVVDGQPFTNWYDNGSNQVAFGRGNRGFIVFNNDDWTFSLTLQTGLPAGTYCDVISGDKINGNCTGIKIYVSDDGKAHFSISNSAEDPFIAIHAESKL
# ASSAY TEXT: Binding mode (distribution of hydrolysis products) by HPLC
# Type: biochemical
# EXPERIMENTAL PARAMETERS: share of product G2P
Here, each record is paired with measured Hydrolysis product G2P data.
# unit: % | format: bare number

O=[N+]([O-])c1ccc(O[C@H]2O[C@H](CO)[C@@H](O[C@H]3O[C@H](CO)[C@@H](O[C@H]4O[C@H](CO)[C@@H](O[C@H]5O[C@H](CO)[C@@H](O[C@H]6O[C@H](COCc7ccccc7)[C@@H](O)[C@H](O)[C@H]6O)[C@H](O)[C@H]5O)[C@H](O)[C@H]4O)[C@H](O)[C@H]3O)[C@H](O)[C@H]2O)cc1 ... 98

The compound identified as O=[N+]([O-])c1ccc(O[C@H]2O[C@H](CO)[C@@H](O[C@H]3O[C@H](CO)[C@@H](O[C@H]4O[C@H](CO)[C@@H](O[C@H]5O[C@H](CO)[C@@H](O[C@H]6O[C@H](CO)[C@@H](O)[C@H](O)[C@H]6O)[C@H](O)[C@H]5O)[C@H](O)[C@H]4O)[C@H](O)[C@H]3O)[C@H](O)[C@H]2O)cc1 [Substrate G5P] registered its Hydrolysis product G2P at 83

The compound identified as `O=[N+]([O-])c1ccc(O[C@H]2O[C@H](CO)[C@@H](O[C@H]3O[C@H](CO)[C@@H](O[C@H]4O[C@H](CO)[C@@H](O[C@H]5O[C@H](CO)[C@@H](O[C@H]6O[C@H](CO)[C@@H](O[C@H]7O[C@H](COCc8ccccc8)[C@@H](O)[C@H](O)[C@H]7O)[C@H](O)[C@H]6O)[C@H](O)[C@H]5O)[C@H](O)[C@H]4O)[C@H](O)[C@H]3O)[C@H](O)[C@H]2O)cc1` registered its Hydrolysis product G2P at 29
